# experimental_target: Receptor tyrosine-protein kinase erbB-2 (Homo sapiens) (UniProt P04626)
# Sequence (P04626 whole entry, looked up): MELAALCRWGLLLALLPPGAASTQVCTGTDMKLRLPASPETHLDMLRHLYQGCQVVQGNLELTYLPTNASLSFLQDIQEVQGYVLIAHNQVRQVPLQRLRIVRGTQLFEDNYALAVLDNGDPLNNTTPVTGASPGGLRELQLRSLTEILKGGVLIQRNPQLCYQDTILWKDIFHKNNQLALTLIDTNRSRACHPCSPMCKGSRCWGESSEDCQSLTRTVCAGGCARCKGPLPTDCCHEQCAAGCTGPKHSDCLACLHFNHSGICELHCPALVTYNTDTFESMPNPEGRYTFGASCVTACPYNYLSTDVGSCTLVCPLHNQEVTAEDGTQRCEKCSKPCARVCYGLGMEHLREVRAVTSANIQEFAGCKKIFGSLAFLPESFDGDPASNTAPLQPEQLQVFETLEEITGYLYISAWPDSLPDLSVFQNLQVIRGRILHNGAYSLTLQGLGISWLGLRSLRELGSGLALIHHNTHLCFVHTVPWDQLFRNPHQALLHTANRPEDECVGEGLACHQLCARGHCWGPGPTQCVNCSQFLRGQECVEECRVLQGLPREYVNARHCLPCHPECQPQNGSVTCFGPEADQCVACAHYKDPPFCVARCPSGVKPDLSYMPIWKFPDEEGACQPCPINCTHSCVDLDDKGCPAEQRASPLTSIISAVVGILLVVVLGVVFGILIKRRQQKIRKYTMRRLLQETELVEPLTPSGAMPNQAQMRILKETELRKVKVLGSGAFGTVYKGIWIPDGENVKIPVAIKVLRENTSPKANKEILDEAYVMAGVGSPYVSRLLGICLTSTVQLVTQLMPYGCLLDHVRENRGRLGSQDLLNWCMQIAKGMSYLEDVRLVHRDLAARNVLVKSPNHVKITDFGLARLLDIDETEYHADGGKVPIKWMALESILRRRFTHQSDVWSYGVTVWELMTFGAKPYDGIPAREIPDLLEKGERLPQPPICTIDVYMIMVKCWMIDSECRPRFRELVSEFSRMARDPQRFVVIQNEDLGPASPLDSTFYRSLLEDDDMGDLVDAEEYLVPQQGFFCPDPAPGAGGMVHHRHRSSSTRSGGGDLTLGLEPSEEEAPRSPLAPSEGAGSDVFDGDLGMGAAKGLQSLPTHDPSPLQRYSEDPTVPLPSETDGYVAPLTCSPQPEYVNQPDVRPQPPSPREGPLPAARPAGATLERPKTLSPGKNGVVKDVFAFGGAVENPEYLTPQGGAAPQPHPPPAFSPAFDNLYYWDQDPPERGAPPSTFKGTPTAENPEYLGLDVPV
# assay_notes: reducers of endogenous Her2 protein level, primary screen, SKBR3 breast tumor cells, AlphaScreen, ATP viability (AID 461);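 further: lower value means less Her2 protein in the cells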
# run_parameters: 18-24 h, at 10 µM, hits give low values
Give measured Her2 level for each item. Keep answers brief.
Output spec: scalar in %, unitless text.

Task: Endpoint output: Her2 level of `CCOC(=O)C1CCN(c2c(N(C)Cc3ccco3)c(=O)c2=O)CC1` . Value?
Result: 105

Task: // query Her2 level value for entry COc1ccc(Cl)cc1N1CC(c2nc3ccccc3[nH]2)CC1=O (centres undefined)
Result: 104

Task: Report Her2 level for `CCOC(=O)c1ccc(S(=O)(=O)NC2CCCCCCC2)n1C` please.
Result: 70

Task: Fill in: Her2 level of CCN(CC)CCCN1C(=O)C(=O)/C(=C(/O)c2ccccc2)C1c1ccccn1 (centres undefined) is ___
Result: 100

Task: // lookup Her2 level for `CCCn1c(-c2ccc(F)cc2)cnc1SCC(=O)O`
Result: 98.5

Task: // query Her2 level value for entry `O=C(NCc1cccnc1)c1cn(CCc2ccccc2)nn1`
Result: 93

Task: Any idea what Her2 level was measured for `O=C(c1cccs1)N1CCN=C1SCc1ccccc1` ?
Result: 74.5

Task: Given the entry `CCn1c(C(=O)N2CCC(C(=O)NCc3ccc4c(c3)OCO4)CC2)cc2sccc21` , report its measured Her2 level.
Result: 77.5

Task: // query Her2 level value for entry CN(C)S(=O)(=O)c1ccc2c(c1)C(CC(=O)O)OC2=O (centres undefined)
Result: 96.5

Task: For `Cc1cc(=O)n2nc(-c3ccccc3)sc2n1` , what is its reported Her2 level?
Result: 92.5

Task: May I ask what Her2 level has been recorded for CCC1CCCN1Cn1cnc2c([nH]c3ccc(OC)cc32)c1=O (centres undefined) ?
Result: 90

Task: Could you tell me which Her2 level is on file for `CCOc1c(C)cc2[nH]c(CCC(=O)O)nc2c1C` ?
Result: 103

Task: Which Her2 level value is on record for `CC(=O)N1CCN=C1SCc1ccc(Br)cc1` ?
Result: 97.5

Task: Field request: Her2 level | item: Cc1cc2n(n1)C(c1ccccc1)Nc1ccccc1-2 (centres undefined)
Result: 104

Task: Quick one: Her2 level of CCOC(=O)c1cccnc1SCC(=O)NC(C)CC (centres undefined) ?
Result: 93

Task: Requested read-out: Her2 level. Entry: COc1ccc(NC(=O)CS(=O)CC(=O)Nc2cc(Cl)ccc2OC)cc1 (centres undefined)
Result: 106

Task: What value of Her2 level has been reported for the following compound? `C=CCn1c(=O)c2ccccc2n2c(SCC(=O)Nc3cc(C)on3)nnc12`
Result: 89

Task: Suppose we examine the compound `CC(=O)NS(=O)(=O)c1ccc(N)cc1` ; what Her2 level value has been reported?
Result: 124

Task: Which Her2 level is listed for `CCOC(=O)NC1(NCc2ccccc2)Oc2ccccc2O1` ?
Result: 101

Task: Look up Her2 level: `CN(Cc1nc(-c2ccncc2)no1)S(=O)(=O)c1ccccc1`
Result: 79

Task: I have this compound here, COc1ccc(C2=NOC(C(=O)NC3CCCCC3)C2)cc1OC (centres undefined) , and I need its recorded Her2 level.
Result: 92

Task: I'd like to know its Her2 level. The compound in question is `O=C(CS(=O)(=O)c1cn(Cc2ccc(Cl)cc2)c2ccccc12)N1CCCC1`
Result: 92

Task: Dear colleague, I am looking for the recorded Her2 level of the following compound: `CCOC(=O)/N=C(/NC(=O)Nc1ccc(C(=O)OCC)cc1)OC`
Result: 75.5

Task: Given the entry `O=C(CCS(=O)(=O)c1cccc2nsnc12)N1CCN(Cc2ccc3c(c2)OCO3)CC1` , report its measured Her2 level.
Result: 99

====

# assay_notes: OD615 S. cerevisiae growth inhibition, permissive medium, pilot counter-assay, permissive growth control for S. cerevisiae lifespan shortening project (AID 705)
# run_parameters: OD615, 24 h, at 10 µM, hits give high values
measured_endpoint: growth inhibition (%)
Express it in %; write the number only.

Task: Requested field: growth inhibition. Item: `Cc1ccccc1NC(=O)CSC(N)=O`
Result: -1.39

Task: Data request, read-out growth inhibition, for CC(c1ccccc1F)n1cc(C(=O)NCCc2ccco2)nn1 (configuration not stated)
Result: -12.9

Task: Quick check: growth inhibition of `Cc1cccnc1NC(=O)c1c(O)c2ccccc2n(C)c1=O` ?
Result: 3.49

Task: # growth inhibition lookup, item `CCOC(=O)N1CCN(CC(=O)Nc2cc(OCC)ccc2OCC)CC1`
Result: -8.3

Task: Item under review: `CC(C)c1ccc(NC(=O)c2cccnc2)cc1` . Reported growth inhibition?
Result: -3.85

Task: Could you tell me which growth inhibition is on file for `COC(=O)c1ccc(NS(=O)(=O)c2ccc3c(c2)oc(=O)n3C)cc1` ?
Result: -4.12

Task: Could you share which growth inhibition value was measured for `COc1cc2c(C(=O)N3CCN(Cc4ccc5c(c4)OCO5)CC3)cn(C)c(=O)c2cc1OC` ?
Result: -8.34

Task: Any idea what growth inhibition was measured for Cc1ccc2cc(-c3noc(C4CCCO4)n3)c(=O)[nH]c2c1 (configuration not stated) ?
Result: -12.5

Task: So what's the measured growth inhibition for this one? `FC(F)(F)c1nnc2ccc(-n3ccnc3)nn12`
Result: -9.92

Task: May I ask what growth inhibition has been recorded for `CCOc1ccc(-n2c(SCC(=O)Nc3ccc4c(c3)OCO4)nc3c(c2=O)SCC3)cc1` ?
Result: 3.25

Task: Request the reported growth inhibition associated with COc1ccc(OC(C)C(=O)Nc2cccc(OC)c2)cc1 (configuration not stated)
Result: -4.58

Task: Entry `Cc1csc(NC(=O)NC2(C(F)(F)F)Oc3ccccc3O2)n1` : reported growth inhibition = ?
Result: -6.66

====

# assay_notes: Restrictive medium S. cerevisiae growth inhibition, OD615, pilot screen of yeast lifespan reduction project, restrictive growth control (AID 706);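 further: modified DeaD lifespan yeast strain shifted to restrictive glucose medium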
# run_parameters: OD615, 48 h, at 10 µM, hits give high values
measured_endpoint: growth inhibition (%)
Write the value in % as a bare number.

Task: Reported growth inhibition, compound `CC(=O)Nc1ccc(-n2c(C)c(C(C)=O)c(C(C)=O)c2C)cc1` : ____
Result: -2.06

Task: Which growth inhibition value is on record for `Cc1ccccc1C(=O)Nc1ccccc1` ?
Result: -2.05

Task: Could you tell me which growth inhibition is on file for `COc1ccc(OC)c(N(CC(=O)O)S(=O)(=O)c2ccc(OC)c(OC)c2)c1` ?
Result: -11.1

Task: # get_value(readout='growth inhibition', item= `Cc1nnc2ccc(N3CCN(C(=O)c4ccccc4)CC3)nn12` )
Result: 5.48

Task: Which measured growth inhibition value corresponds to `CCc1nc(SCC(=O)c2ccc(C)c(C)c2)n[nH]1` ?
Result: 4.11

Task: GET /values?readout=growth inhibition&item= CCSCCOC(=O)C1=C(C)NC(=O)NC1c1ccc2c(c1)OCO2 (configuration not stated)
Result: 3.72

Task: Report growth inhibition for `Cc1ccc(Cc2cnc(N)s2)o1` please.
Result: 10.1

Task: What does the data say about its growth inhibition? Entry: `O=C(O)CCC(=O)CCC(=O)c1ccc(Cl)cc1`
Result: -2.93

Task: What does the record list as growth inhibition for CCC(C)(C(=O)NC1CCCCC1)N(C(=O)C1CCC(=O)N1)c1ccc(C)cc1 (configuration not stated) ?
Result: -4.21

Task: Report growth inhibition for `CCSc1nc2ccccc2n1CC(=O)N1CCOCC1` please.
Result: 1.08

Task: Field request: growth inhibition | item: `CCCCOc1ccccc1C1C(C(=O)OC)=C(C)N(C)C(C)=C1C(=O)OC`
Result: -5.04

Task: Quick one: growth inhibition of `CCOC(=O)COc1cccc2c(=O)n(CC(=O)N3CCc4ccccc43)ccc12` ?
Result: -15.5

====

# assay_notes: Restrictive medium S. cerevisiae growth inhibition, OD615, pilot screen of yeast lifespan reduction project, restrictive growth control (AID 706);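 further: modified DeaD lifespan yeast strain shifted to restrictive glucose medium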
# run_parameters: OD615, 48 h, at 10 µM
Active and inactive are the calls of the source.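 How the source made its calls: active means growth inhibition above a set limit, 3 SD over mean compound inhibition, in both replicates (cut at about 43% in these data); inconclusive means above the limit in only one replicate; inactive means at or below the limit in both replicates.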
Assign a class; possible classes are active, inactive

Task: // param item: Cc1nc2sc(C(c3ccco3)N3CCN(c4ccc(F)cc4)CC3)c(O)n2n1 (stereo not given) ; yields the recorded call
Result: inactive

Task: Hi team, can someone confirm the assay call for `COc1cc2c(cc1OC)CN(S(C)(=O)=O)CC2` ?
Result: inactive

Task: What classification did Cn1c(=O)oc2cc(S(=O)(=O)N3CCCC(C(=O)N4CC=C(c5ccccc5)CC4)C3)ccc21 (stereo not given) end up with in this test?
Result: inactive

Task: Given CC1Cc2ccccc2N1C(=O)Cn1cnc2ccccc2c1=O (stereo not given) , state the outcome it received in this test.
Result: inactive

Task: Returns: the outcome recorded for `CNC(=O)c1c(NC(=O)c2nc3ccccc3s2)sc2c1CCC2` in this assay.
Result: inactive

Task: What did the test return for `CCOC(=O)c1nnn(-c2nonc2N)c1COc1ccccc1` ?
Result: inactive

Task: Which outcome did this test record for the compound COc1ccc(N2CSC3=C(C#N)C(c4cc(OC)c(OC)cc4OC)CC(=O)N3C2)c(OC)c1 (stereo not given) ?
Result: inactive

Task: // param item: O=C(NC1CCCCC1)C(c1ccccc1)N1CCC2(CC1)OCCO2 (stereo not given) ; yields the recorded call
Result: inactive

Task: Please indicate how the test categorized `CCOC(=O)C1=C(C)S/C(=C\N(C)C)C1=O` .
Result: inactive

Task: Test call for this compound, please: CCc1nnc(NC(=O)C2Cc3ccccc3C(=O)O2)s1 (stereo not given)
Result: inactive

Task: Outcome? `CC(=O)Nc1cc(OC(=O)c2ccco2)cc(OC(=O)c2ccco2)c1`
Result: inactive

Task: Assay result, entry Cc1c(Cl)cccc1NC(=O)CCN1CCCC(C)C1 (stereo not given) — outcome?
Result: inactive

Task: Assay result, entry `Cc1ccc(SCCNC(=O)C(CO)(CO)CO)cc1` — outcome?
Result: inactive

Task: Could you kindly confirm the outcome this assay logged for `CCc1cc(C(=O)Cc2ccc(F)cc2)c(O)cc1O` ?
Result: inactive

Task: What is the recorded call for this compound in the test? O=C(CSc1oc(-c2ccc(F)cc2)nc1S(=O)(=O)c1ccccc1)NCC1CCCO1 (stereo not given)
Result: inactive

Task: Please indicate how the test categorized `CCc1cccc(Nc2cc(C)nc3ncnn23)c1` .
Result: inactive

Task: In this assay, the call recorded for `CCCn1c(CN(Cc2ccccc2)Cc2ccccc2)nc2c1c(=O)n(C)c(=O)n2C` was what?
Result: inactive

Task: Would you mind telling me which call this test gave CC(=O)c1cccc(NC(=O)N2CCCC2C(=O)Nc2c(C)cccc2C)c1 (stereo not given) ?
Result: inactive

Task: I would be grateful if you could indicate the recorded call for `COc1ccc(CNC(=O)c2cnc3scc(C)n3c2=O)cc1` .
Result: inactive

Task: Could you please tell me the result logged for COc1ccc(C2C(C(=O)N3CC(C)CC(C)C3)c3ccccc3C(=O)N2C)cc1 (stereo not given) in this assay?
Result: inactive

Task: What was the test verdict on `COC(=O)c1c(-c2cccc(OC)c2)csc1N` ?
Result: inactive

Task: Please state the recorded outcome for this compound: `CCOc1ccc(N(CC(=O)NC(C)(C)C)S(=O)(=O)c2c(C)noc2C)cc1`
Result: inactive

Task: Which result was noted for this compound in the test: COc1ccc(N2CSC3=C(C#N)C(c4cccc(OC)c4OC)CC(=O)N3C2)cc1 (stereo not given)
Result: inactive

Task: For COc1ccc(Cl)cc1C(=O)NCC(c1ccco1)N1CCCC1 (stereo not given) , what call appears in the results of this test?
Result: inactive

Task: State the result this test recorded for CC1CCCCN1CCn1cnc2c([nH]c3ccccc32)c1=O (stereo not given) .
Result: inactive

Task: Check the results log: what was the call for `CCCCN(C(=O)NC(=O)Nc1nc2ccc(OC)cc2s1)S(C)(=O)=O` ?
Result: inactive

Task: Hi, do you know how COc1ccc(C2c3c(oc4ccccc4c3=O)C(=O)N2c2ccccn2)cc1 (stereo not given) came out in this test?
Result: inactive

Task: Each compound tested received a call. Report the one for `CCOC(=O)N1CCN(C(=O)C(C)(C)Oc2ccc(Cl)cc2)CC1` .
Result: inactive

Task: Just curious, what result did `CCN(CC)S(=O)(=O)c1ccc(NC(=O)Cn2c(=O)oc3ccccc32)cc1` get here?
Result: inactive

Task: Could you please tell me the result logged for `Cc1ccc(C)c(Nc2ncnc3nc[nH]c23)c1` in this assay?
Result: inactive

Task: Hello, I am checking results. What call was entered for CC(C)CC(/C(O)=C(\C#N)c1nc2ccccc2[nH]1)N1C(=O)c2ccccc2C1=O (stereo not given) ?
Result: inactive

Task: Outcome logged for O=C(Nc1ccccc1)C1CC=CCC1C(=O)OCC1CCCO1 (stereo not given) in this assay:
Result: inactive

Task: Which outcome did this test record for the compound `CCCCOC(=O)c1ccc(NS(=O)(=O)c2cc(-c3nnnn3CC)ccc2OC)cc1` ?
Result: inactive

Task: For `CSCC[C@@H](C(=O)O)N1Cc2ccccc2C1=O` , which call appears in the assay record?
Result: inactive

Task: Call for entry O=C(NCC1CCCO1)c1ccc2c(c1)C(=O)N(C1CCCCC1)C2=O (stereo not given) :
Result: inactive

Task: Identify the outcome logged in this assay for the compound shown: `CCC(=O)Nc1cccc(-c2nnc(SCC(=O)c3ccccc3)n2C)c1`
Result: active

Task: Tell me the assay call for `COc1ccccc1CC(=O)Nc1ccc(-c2nnc(-c3ccco3)o2)cc1` please.
Result: inactive

Task: Each compound tested received a call. Report the one for `Cc1ccc(Nc2nc(C3CC3)cs2)cc1` .
Result: inactive

Task: What outcome does the record of this test show for CCOC(=O)N1CCN(C(=O)C2CC(c3ccc(F)cc3)=NO2)CC1 (stereo not given) ?
Result: inactive

Task: Dear all, I need the recorded test outcome for O=C(NC(C(=O)c1ccccc1)N1CCCCC1)c1ccccc1 (stereo not given) , thank you.
Result: inactive

Task: Entry Cc1cccc(C2CC(c3ccccc3)Nc3ncnn32)c1 (stereo not given) : call = ?
Result: inactive

Task: # lookup: test call for CCOC(=O)C1CCCN(C(=O)c2ccccc2Oc2ccccc2)C1 (stereo not given)
Result: inactive

Task: # lookup: test call for `Cc1cc2cc(CNS(=O)(=O)N(C)C)ccc2[nH]1`
Result: inactive

Task: Which outcome was assigned to `CCOC(=O)Cn1c(CN2CCOCC2)nc2c1c(=O)n(C)c(=O)n2C` in this test?
Result: inactive

Task: What outcome does the record of this test show for `Cc1cccc(NC(=O)C2CCN(S(=O)(=O)c3cccc4cccnc34)CC2)n1` ?
Result: inactive
